Assay System: Arp2/3 (Bos taurus, UniProt A7MB62+P61157)
Assay Overview: Pyrene-actin polymerization assay
Cond: 1.5 μM actin (10% pyrenyl-labeled), 20 nM Arp2/3, 250 nM N-WASP VCA; read-out: IC50 of Arp2/3-mediated actin polymerization
pIC50: −log10 of the molar value.
Measured Property: pIC50

INSERT INTO measurements (smiles_input, measured) VALUES
  ('Cc1[nH]c2c(C(F)(F)F)cccc2c1CCNC(=O)c1cc(S(=O)(=O)NC2CC2)c(Cl)cc1Cl', 3.27),
  ('Cc1[nH]c2c(Cl)cccc2c1CCNC(=O)c1cc(S(=O)(=O)N(C)C)c(Cl)cc1Cl', 4.21),
  ('Cc1[nH]c2ccccc2c1CCNC(=O)c1ccccc1C(=O)c1ccccc1', 3.98),
  ('Cc1[nH]c2ccc(OCc3ccccc3)cc2c1CCNC(=O)c1cccc(Br)c1', 3.74),
  ('Cc1[nH]c2ccccc2c1CCNC(=O)c1ccccc1F', 4.64);
